Molecular target: T1, Activin A (UniProt P08476 311-426)
T1 construct: also called ActA
T1 sequence (looked up): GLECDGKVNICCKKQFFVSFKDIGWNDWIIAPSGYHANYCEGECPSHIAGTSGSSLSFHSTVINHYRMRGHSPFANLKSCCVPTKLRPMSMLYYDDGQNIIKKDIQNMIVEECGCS
Assay: BiaCore; ligand coupled to the device, receptor-Fc flowed over

{"columns": ["Binder", "binding result"],
 "data": [
  ["Soluble ActRIIB-Fc D80I (Fc fusion, UniProt Q13705 19-119, looked up, T0019 variant; whole entry named; not shown: Fc domain) SGRGEAETRECIYYNANWELERTNQSGLERCEGEQDKRLHCYASWANSSGTIELVKKGCWLIDFNCYDRQECVATEENPQVYFCCCEGNFCNERFTHLPEA", "no binding"],
  ["Soluble ActRIIB-Fc D80G (Fc fusion, UniProt Q13705 19-119, looked up, T0019 variant; whole entry named; not shown: Fc domain) SGRGEAETRECIYYNANWELERTNQSGLERCEGEQDKRLHCYASWANSSGTIELVKKGCWLGDFNCYDRQECVATEENPQVYFCCCEGNFCNERFTHLPEA", "no binding"],
  ["Soluble ActRIIB-Fc E37A (Fc fusion, UniProt Q13705 19-119, looked up, T0019 variant; whole entry named; not shown: Fc domain) SGRGEAETRECIYYNANWALERTNQSGLERCEGEQDKRLHCYASWANSSGTIELVKKGCWLDDFNCYDRQECVATEENPQVYFCCCEGNFCNERFTHLPEA", "no binding"]
]}
